Source: patent US7790896B2

System: RNA (Type VI from torula yeast)
Assay: In vitro solution assay (primary screening): fluorescent emission fold change upon binding to RNA
Conditions: dye 10 μM, RNA 500 μg/mL in TE buffer
observation.type: Fold (fluorescent emission fold changes to RNA)

{"compound": "Cc1cccc(C=Cc2cc3ccccc3n2C)[n+]1C [Dye C108]", "measured.target": "RNA (Type VI from torula yeast)", "meas.value": 8}
{"compound": "CN(CCC#N)c1ccc(/C=C/c2cc[n+](C)cc2)cc1 [Dye A9]", "measured.target": "RNA (Type VI from torula yeast)", "meas.value": 21}
{"compound": "COc1ccc2c(ccc(C=Cc3ccc(N(C)CCO)cc3)[n+]2C)c1 [Dye F10]", "measured.target": "RNA (Type VI from torula yeast)", "meas.value": 38}
{"compound": "COc1cc(/C=C/c2cc[n+](C)cc2)c(OCc2ccccc2)cc1OC [Dye A156]", "measured.target": "RNA (Type VI from torula yeast)", "meas.value": 42}
{"compound": "Cc1cc(C=Cc2cc[n+](C)cc2)c(C)n1-c1cccc(C(F)(F)F)c1 [Dye A121]", "measured.target": "RNA (Type VI from torula yeast)", "meas.value": 28}
{"compound": "COc1ccc2c(ccc(C=Cc3ccc(N(C)CCC#N)cc3)[n+]2C)c1 [Dye F9]", "measured.target": "RNA (Type VI from torula yeast)", "meas.value": 86}
{"compound": "CCN(CC)c1ccc(C=Cc2ccc3cc(OC)ccc3[n+]2C)cc1 [Dye F92]", "measured.target": "RNA (Type VI from torula yeast)", "meas.value": 20}
{"compound": "COc1cc(OC)c(OC)cc1/C=C/c1cc[n+](C)cc1 [Dye A8]", "measured.target": "RNA (Type VI from torula yeast)", "meas.value": 37}
{"compound": "CCN(CC)c1ccc(C=Cc2cccc[n+]2C)cc1 [Dye B92]", "measured.target": "RNA (Type VI from torula yeast)", "meas.value": 28}
{"compound": "Cn1c(/C=C/c2cc[n+](C)c3ccccc23)cc2ccccc21 [Dye D108]", "measured.target": "RNA (Type VI from torula yeast)", "meas.value": 21}
{"compound": "Cc1cccc(/C=C/c2ccc(N(C)CCC#N)cc2)[n+]1C [Dye C9]", "measured.target": "RNA (Type VI from torula yeast)", "meas.value": 9}
{"compound": "COc1cc(OC)c(C=Cc2cc[n+](C)cc2)c(OC)c1 [Dye A144]", "measured.target": "RNA (Type VI from torula yeast)", "meas.value": 26}
{"compound": "CN(CCO)c1ccc(/C=C/c2cc[n+](C)cc2)cc1 [Dye A10]", "measured.target": "RNA (Type VI from torula yeast)", "meas.value": 23}
{"compound": "Cc1cccc(/C=C/c2ccc(N(C)C)cc2)[n+]1C [Dye C22]", "measured.target": "RNA (Type VI from torula yeast)", "meas.value": 6}
{"compound": "C[n+]1c(C=Cc2cc(Br)c(Cl)c(Br)c2)ccc2ccccc21 [Dye E111]", "measured.target": "RNA (Type VI from torula yeast)", "meas.value": 17}
{"compound": "CCN(CC)c1ccc(C=Cc2cc[n+](C)cc2)c(C#N)c1 [Dye A132]", "measured.target": "RNA (Type VI from torula yeast)", "meas.value": 17}
{"compound": "COc1cc(OC)c(OC)cc1C=Cc1cccc(C)[n+]1C [Dye C8]", "measured.target": "RNA (Type VI from torula yeast)", "meas.value": 9}
{"compound": "Cn1c(C=Cc2ccc3ccccc3[n+]2C)cc2ccccc21 [Dye E108]", "measured.target": "RNA (Type VI from torula yeast)", "meas.value": 21}
{"compound": "COc1cc(OC)c(/C=C/c2ccc3ccccc3[n+]2C)c(OC)c1 [Dye E144]", "measured.target": "RNA (Type VI from torula yeast)", "meas.value": 5}
{"compound": "CN(C)c1ccc(C=Cc2cc[n+](C)cc2)c2ccccc12 [Dye A24]", "measured.target": "RNA (Type VI from torula yeast)", "meas.value": 103}
{"compound": "CN(C)c1ccc(C=Cc2cc[n+](C)cc2)cc1 [Dye A22]", "measured.target": "RNA (Type VI from torula yeast)", "meas.value": 28}
{"compound": "COc1cc(/C=C/c2cccc[n+]2C)c(OCc2ccccc2)cc1OC [Dye B156]", "measured.target": "RNA (Type VI from torula yeast)", "meas.value": 54}
{"compound": "CCN(CC)c1ccc(C=Cc2ccc3cc(OC)ccc3[n+]2C)c(C#N)c1 [Dye F132]", "measured.target": "RNA (Type VI from torula yeast)", "meas.value": 14}
{"compound": "COc1ccc2c(ccc(/C=C/c3ccc(N(C)C)cc3)[n+]2C)c1 [Dye F22]", "measured.target": "RNA (Type VI from torula yeast)", "meas.value": 23}
{"compound": "COc1ccc2c(ccc(C=Cc3cc(OC)c(OC)cc3OC)[n+]2C)c1.[I-] [Dye F8]", "measured.target": "RNA (Type VI from torula yeast)", "meas.value": 52}
{"compound": "COc1ccc2c(ccc(/C=C/c3cc4ccccc4n3C)[n+]2C)c1 [Dye F108]", "measured.target": "RNA (Type VI from torula yeast)", "meas.value": 27}
{"compound": "CCN(CC)c1ccc(/C=C/c2cccc[n+]2C)c(C#N)c1 [Dye B132]", "measured.target": "RNA (Type VI from torula yeast)", "meas.value": 28}
{"compound": "CCn1c2ccccc2c2cc(C=Cc3cc[n+](C)c4ccccc34)ccc21 [Dye D107]", "measured.target": "RNA (Type VI from torula yeast)", "meas.value": 13}
{"compound": "COc1ccc2c(ccc(C=Cc3ccc(O)c(Br)c3)[n+]2C)c1 [Dye F158]", "measured.target": "RNA (Type VI from torula yeast)", "meas.value": 7}
{"compound": "C[n+]1ccc(/C=C/c2c[nH]c3ccccc23)cc1 [Dye A4]", "measured.target": "RNA (Type VI from torula yeast)", "meas.value": 11}

====

Assay: Fluorescence spectrum in TE buffer of dyes selected from live cell imaging
Type: physicochemical
Settings: dye 10 μM in TE buffer

{"compound": "COc1ccc2c(ccc(/C=C/c3cccc(Br)n3)[n+]2C)c1", "unit.info": "nm", "SPECTRUM EX": 400}
{"compound": "COc1ccc2c(ccc(/C=C/c3cccc(C(F)(F)F)c3)[n+]2C)c1", "unit.info": "nm", "SPECTRUM EX": 400}
{"compound": "COc1ccc2c(ccc(/C=C/c3ccc(OC)c(O)c3Cl)[n+]2C)c1", "unit.info": "nm", "SPECTRUM EX": 450}
{"compound": "COc1ccc2c(ccc(C=Cc3ccc(O)c(Br)c3)[n+]2C)c1", "unit.info": "nm", "SPECTRUM EX": 500}
{"compound": "COc1ccc2c(ccc(/C=C/c3c(C)cc(C)cc3C)[n+]2C)c1", "unit.info": "nm", "SPECTRUM EX": 400}

====

Experiment: Fluorescence spectrum in TE buffer of dyes selected from live cell imaging
Format: physicochemical
Details: dye 10 μM in TE buffer

{"compound": "CCCCCC(/C=C/c1ccc2cc(OC)ccc2[n+]1C)=C\\c1ccccc1 [Dye F101]", "SPECTRUM EX [nm]": 350}
{"compound": "COc1ccc2c(ccc(/C=C/C=C/c3ccccc3OC)[n+]2C)c1 [Dye F97]", "SPECTRUM EX [nm]": 350}
{"compound": "C[n+]1c(/C=C/c2c[nH]c3ccccc23)ccc2ccccc21 [Dye E36]", "SPECTRUM EX [nm]": 450}
{"compound": "COc1ccc2c(ccc(C=Cc3c(C)ccc4ccccc34)[n+]2C)c1 [Dye F143]", "SPECTRUM EX [nm]": 450}
{"compound": "COc1ccc2c(ccc(/C=C/c3ccc(OC)c4ccccc34)[n+]2C)c1 [Dye F41]", "SPECTRUM EX [nm]": 450}
{"compound": "C[n+]1c(/C=C/c2ccc(-c3cccs3)s2)ccc2ccccc21 [Dye E119]", "SPECTRUM EX [nm]": 450}
{"compound": "COc1ccc2c(ccc(/C=C/c3cccc(OC)c3OC(C)=O)[n+]2C)c1 [Dye F153]", "SPECTRUM EX [nm]": 350}
{"compound": "C[n+]1ccc(C=Cc2cccc(F)c2F)c2ccccc21 [Dye D84]", "SPECTRUM EX [nm]": 350}
{"compound": "COc1ccc2c(ccc(C=Cc3ccccc3Br)[n+]2C)c1 [Dye F47]", "SPECTRUM EX [nm]": 350}
{"compound": "COc1ccc2c(ccc(/C=C/c3ccc(N(C)C)cc3[N+](=O)[O-])[n+]2C)c1 [Dye F112]", "SPECTRUM EX [nm]": 500}
{"compound": "COc1ccc2c(ccc(/C=C/c3ccoc3)[n+]2C)c1 [Dye F48]", "SPECTRUM EX [nm]": 400}
{"compound": "COc1ccc2c(ccc(/C=C/c3cc(Br)ccc3OC)[n+]2C)c1 [Dye F137]", "SPECTRUM EX [nm]": 400}
{"compound": "COc1ccc2c(ccc(C=Cc3ccc4c5c(cccc35)CC4)[n+]2C)c1 [Dye F118]", "SPECTRUM EX [nm]": 450}
{"compound": "COc1ccc(/C=C/c2ccc3ccccc3[n+]2C)cc1 [Dye E63]", "SPECTRUM EX [nm]": 400}
{"compound": "COc1ccc2c(ccc(/C=C/c3ccc(Br)s3)[n+]2C)c1 [Dye F77]", "SPECTRUM EX [nm]": 350}
{"compound": "COc1ccc2c(ccc(C=Cc3ccccc3N(c3ccccc3)c3ccccc3)[n+]2C)c1 [Dye F138]", "SPECTRUM EX [nm]": 350}
{"compound": "COc1ccc2c(ccc(/C=C/c3cc4c5c(c3O)CCCN5CCC4)[n+]2C)c1 [Dye F115]", "SPECTRUM EX [nm]": 500}
{"compound": "COC(=O)c1cc(OC)cc(OC)c1C=Cc1ccc2cc(OC)ccc2[n+]1C [Dye F145]", "SPECTRUM EX [nm]": 400}
{"compound": "COc1ccc2c(ccc(C=Cc3ccc(C)c4ccccc34)[n+]2C)c1 [Dye F141]", "SPECTRUM EX [nm]": 450}
